Assay: binders of probe aHhip on microarray, primary screen, stem cell growth factor project, biochemical, small-molecule microarray, fluorescence 635/667 (AID 1087);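 note: score merges spot fluorescence at 667nm with spot signal to noise ratio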
Conditions: higher = more signal
// map composite z-score to label using low: < -0.2; intermediate: ≥ -0.2 and < 0.04; high: ≥ 0.04

Record excerpt, results attached:
{"columns": ["molecule", "categoryLabel"],
 "data": [
  ["C=CCOC(=O)[C@H]1[C@@H]2C(=O)O[C@@H](c3ccccc3)[C@@H](c3ccccc3)N2[C@@H](c2ccc(OCCOC(=O)[C@H]3C[C@H]4C(=O)N[C@@H](CC(C)C)C(=O)N4[C@H]3c3cccc(OCCO)c3)cc2)[C@]12C(=O)Nc1ccc(I)cc12", "intermediate"],
  ["COCCOC(=O)N1C(=O)[C@@]2(c3ccccc31)[C@H](C(=O)N1CCN(c3ncccn3)CC1)[C@H]1C(=O)O[C@H](c3ccccc3)[C@H](c3ccccc3)N1[C@@H]2c1ccc(O)cc1", "high"],
  ["O=C1O[C@@H](c2ccccc2)[C@@H](c2ccccc2)N2[C@@H](c3ccc(O)cc3)[C@]3(C(=O)Nc4ccc(C#CC5(O)CCCCCC5)cc43)[C@@H](C(=O)NC[C@H](O)c3ccccc3)[C@H]12", "low"]
]}

## Input Which bin, given its composite z-score, does C=CCN1C(=O)[C@@]2(O[C@@H](CCn3cc([C@H](O)c4ccccc4)nn3)[C@H]([Si](C)(C)c3ccc(OC)cc3)[C@H]2C)c2cc(N3CCC3=O)ccc21 occupy?
## Output intermediate

## Input Same lookup for COCCCNC(=O)[C@@]1(Cc2ccccc2N=[N+]=[N-])COC(c2ccc(OCCCO)cc2)=N1 , please.
## Output low
